Where do the numbers come from? From the Human Domainome abundance scans (Beltran et al. 2025).

B1: SAM and SH3 domain-containing protein 1, residues 630 to 700; numbered along this chain, O94885 (parent)
chain: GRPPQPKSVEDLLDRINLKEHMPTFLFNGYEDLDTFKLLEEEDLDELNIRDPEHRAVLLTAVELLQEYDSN

# Variants of: B1
# MEASUREMENT_PROTOCOL: abundance fitness (aPCA) (normalised: wild type 0, dead -1); higher = more abundant; growth selection in yeast, the domain comes from the species named
# TEST_CONTEXT: Homo sapiens
Could you please report measured abundance fitness for the items listed next?
One number for each entry.

T60F -0.613
E10I -0.446
E67W -0.438
L26P -0.825

Go through the items and report each one's abundance fitness.
1. T24D
2. E20L
3. E53K
4. M22L
5. L38D
6. E41K
7. E53H

-0.622
-0.559
-0.131
0.377
-0.175
-0.302
-0.09

Go through the items and report each one's abundance fitness.
1. L39W
2. T24E
3. L39E
4. F25W

1: -1.19; 2: -0.435; 3: -0.771; 4: -0.891

Respond only with abundance fitness recorded for "V9P"
-0.632
